Values were extracted from patent US7169806B2.

Task for the reader: assign each of the following compounds its reported Blood glucose, t = 60.
# Tested on: male Zucker Fatty Rats
# assay_info: In vivo activity in glucose tolerance model (oral glucose challenge)
# Set-up: species or system rat
# condition_set: 10 mg/kg oral gavage 1 hour before oral glucose (1 g/kg); t = 60 minutes; mean ± SE, n = 4
Field: value (include unit after the number)

>  <compound>
CC[C@H](C)[C@H](NC(=O)OC)C(=O)N1CCC[C@H]1C#N

>  <tested_target>
male Zucker Fatty Rats

>  <Blood glucose, t = 60>
120.6 ± 8.3 mg/dL

$$$$
>  <compound>
CC[C@H](C)[C@H](N)C(=O)N1CCC[C@H]1C#N [Reference, reference compound]

>  <tested_target>
male Zucker Fatty Rats

>  <Blood glucose, t = 60>
112.2 ± 7.5 mg/dL

$$$$
>  <compound>
CC[C@H](C)[C@H](NC(=O)OC(C)OC(C)=O)C(=O)N1CCC[C@H]1C#N (stereo partly shown)

>  <tested_target>
male Zucker Fatty Rats

>  <Blood glucose, t = 60>
117.6 ± 6.7 mg/dL

$$$$

In the following, a different compound is considered.
Input CC[C@H](C)[C@H](NC(=O)CN)C(=O)N1CCC[C@H]1C#N . Output Blood glucose, t = 60: 114.6 ± 8.1 mg/dL

* * *

Task for the reader: assign each of the following compounds its reported Blood glucose, t = 20.
# Tested on: male Zucker Fatty Rats
# assay_info: In vivo activity in glucose tolerance model (oral glucose challenge)
# Parameters: species or system rat
# condition_set: 10 mg/kg oral gavage 1 hour before oral glucose (1 g/kg); t = 20 minutes; mean ± SE, n = 4
# Method: The activity of the compounds was investigated in male Zucker Fatty Rats between 10 and 20 weeks of age. The animals were fasted overnight and then administered with the test compound (10 mg/kg) as a solution by oral gavage. One hour later hour a blood sample (200 μl) is taken from the tail vein to establish a baseline (t=0) glucose level, then the animals are given glucose (1 g/kg as a 40% wt/vol solution) orally. […] Glucose is determined by an enzymatic assay. […]
Give bare numbers, in mg/dL.

Known results for compounds:
>  <compound>
CC[C@H](C)[C@H](NC(=O)OC(C)OC(C)=O)C(=O)N1CCC[C@H]1C#N (stereo partly shown) [Example 2]

>  <tested_target>
male Zucker Fatty Rats

>  <parameter_measured>
Blood glucose, t = 20

>  <recorded_number>
117.8

$$$$
>  <compound>
CC[C@H](C)[C@H](NC(=O)OC)C(=O)N1CCC[C@H]1C#N [Example 3]

>  <tested_target>
male Zucker Fatty Rats

>  <parameter_measured>
Blood glucose, t = 20

>  <recorded_number>
148.5

$$$$
>  <compound>
CC[C@H](C)[C@H](NC(=O)CN)C(=O)N1CCC[C@H]1C#N [Example 5]

>  <tested_target>
male Zucker Fatty Rats

>  <parameter_measured>
Blood glucose, t = 20

>  <recorded_number>
134.2

$$$$

In the following, a different compound is considered.
Input CC[C@H](C)[C@H](N)C(=O)N1CCC[C@H]1C#N [Reference, reference compound] . Output Blood glucose, t = 20: 110.0

* * *

# Tested on: male Zucker Fatty Rats
# assay_info: In vivo activity in glucose tolerance model (oral glucose challenge)
# Set-up: species or system rat
# condition_set: 10 mg/kg oral gavage 1 hour before oral glucose (1 g/kg); t = 10 minutes; mean ± SE, n = 4
Task for the reader: assign each of the following compounds its reported Blood glucose, t = 10.
One number for each entry, in mg/dL.

Known results for compounds:
>  <compound>
CC[C@H](C)[C@H](NC(=O)OC(C)OC(C)=O)C(=O)N1CCC[C@H]1C#N (stereo partly shown)

>  <tested_target>
male Zucker Fatty Rats

>  <parameter_measured>
Blood glucose, t = 10

>  <value_unit>
mg/dL

>  <recorded_number>
122.2

$$$$
>  <compound>
CC[C@H](C)[C@H](NC(=O)CN)C(=O)N1CCC[C@H]1C#N

>  <tested_target>
male Zucker Fatty Rats

>  <parameter_measured>
Blood glucose, t = 10

>  <value_unit>
mg/dL

>  <recorded_number>
141.3

$$$$
>  <compound>
CC[C@H](C)[C@H](NC(=O)OC)C(=O)N1CCC[C@H]1C#N

>  <tested_target>
male Zucker Fatty Rats

>  <parameter_measured>
Blood glucose, t = 10

>  <value_unit>
mg/dL

>  <recorded_number>
175.1

$$$$

Input CC[C@H](C)[C@H](N)C(=O)N1CCC[C@H]1C#N [Reference, reference compound] . Output Blood glucose, t = 10: 125.8
